Hello, the source for this data is patent US9512128B2, in case you need it.

# Test details: log P by HPLC on reversed-phase columns (C 18), EEC directive 79/831 Annex V.A8
# Format: physicochemical
# Conditions: method [b]
Property name: logP[b]

(a) Cc1cc(C)c(-n2cnc3c(ncn3C)c2=O)cc1SCC(F)(F)F
(b) Cc1c2c(=O)n(-c3ccc(C#N)c([S+]([O-])CC(F)(F)F)c3)cnc2nn1C (racemic)
Query :: Short answer wanted: higher logP[b], a or b ? // output: label of the selected item
Result :: a

====

# Test details: log P by HPLC on reversed-phase columns (C 18), EEC directive 79/831 Annex V.A8
# Assay type: physicochemical
# Conditions: reversed-phase C18 HPLC column, pH 7.8, neutral range, pH 7.8, 0.001 molar aqueous ammonium bicarbonate / acetonitrile; read-out: log P[b]
Property name: chromatographic logP

(1) Cc1cc(F)c(B(O)O)cc1SCC(F)(F)F
(2) O=C(Nc1cc(SSc2cc(NC(=O)C(F)(F)F)c(F)cc2Cl)c(Cl)cc1F)C(F)(F)F
Query :: Hey, between 1 and 2 which has a smaller measured chromatographic logP? // output: label of the selected item
Result :: 1
